src = the METLIN SMRT retention time set (Domingo-Almenara et al. 2019)

Listed molecules paired with reported RP-LC retention time
# procedure text: gradient 5% acetonitrile 3 min, to 50% in 2 min, to 85% in 15 min, held 3 min, 100 µL/min
# measurement conditions: column: Zorbax Extend-C18 2.1 x 50 mm; eluents: water / acetonitrile, 0.1% formic acid
Param answer (str): number followed by unit.

Here's what some known entries look like.
COc1ccc(N2CCN(c3ncc(C(=O)O)c(C(C)C)n3)CC2)cc1 :: 865 s
CS(=O)(=O)N1C[C@H]2CCN(Cc3ccc(F)cc3F)C[C@H]21 :: 584 s
CCn1cc(CCNC(=O)Nc2cccc(Cl)c2F)c2cccnc21 :: 802 s

For the molecule `CC1CCN(S(=O)(=O)c2ccc3c(c2)CCCC(=O)N3CC(=O)N2CCc3ccccc32)CC1` , give its reported RP-LC retention time.
1030 s

For the molecule `CC(C)CCN(C1CCOCC1)C1CCN(C(=O)Nc2cccc(F)c2)CC1` , give its reported RP-LC retention time.
650 s

For the molecule `COc1ccc(CNC(=O)N2CCN(Cc3nc4cc(Cl)ccc4o3)CC2)cc1` , give its reported RP-LC retention time.
667 s

For the molecule `COc1cc(NC(=O)Cn2c(N3CCc4ccccc4C3)nc(C)cc2=O)cc(OC)c1OC` , give its reported RP-LC retention time.
721 s

For the molecule `Cc1c(-c2noc(-c3ccc4cc[nH]c4c3)n2)nnn1Cc1ccccc1` , give its reported RP-LC retention time.
1010 s

For the molecule `CCCCN(C)C(=O)Cn1c(CN(C)C(=O)c2ccco2)nc2ccccc21` , give its reported RP-LC retention time.
655 s
